- assay_procedure: qHTS Assay for Lipid Storage Modulators in Drosophila S3 Cells
- condition_context: BODIPY lipid droplet fluorescence, 18-24 h, cells fed with added oleic acid; series mostly up to 46.1 µM
- Excerpt: NIH Molecular Libraries Probe Production Centers Network [MLPCN] NIH Chemical Genomics Center [NCGC] […] Triacsin C (Sigma-Aldrich T-4540), an inhibitor of long-chain fatty acyl CoA synthetase that blocks synthesis of triglycerides, was used as a positive control for lipid under-storage. […] Fluorescence was detected by excitation of the fluorophores with a 488-nm laser on an Acumen Explorer (TTP Lab Tech). […] Cells were detected using channel 3 (575-640 nm) with 5-um width and 100-um depth filters. […]
Among all 320,000 compounds or so, about 2,100 (0.66%) were called active. About 53% were inconclusive and are not listed. The list comes from a sample in which actives are over-represented; it also holds close analogues and randomly drawn compounds.
parameter: outcome

INSERT INTO measurements (structure_smiles, assay_result) VALUES
  ('Cc1ccc(NC(=S)N/C(=N/S(=O)(=O)c2ccccc2)c2ccccc2)cc1', 'inactive'),
  ('CCn1c(=O)c(C(=O)NCc2ccccc2OC)c(O)c2ccccc21', 'inactive'),
  ('Cc1occc1C(=O)N1CCN(c2ccc(Cl)c(Cl)c2)CC1', 'inactive');

---

- assay_procedure: qHTS Assay for Lipid Storage Modulators in Drosophila S3 Cells
- condition_context: BODIPY lipid droplet fluorescence, 18-24 h, cells fed with added oleic acid; series mostly up to 46.1 µM
Hit rate of the full screen: of about 320,000 compounds, about 2,100 (0.66%) were called active. Inconclusive results (about 53%) are left out. Many of the other results were omitted from the sample, so actives are more common in it than they were.
parameter: outcome

Take a look at these entries with their results.
INSERT INTO results (compound, assay_result) VALUES
  ('Cc1ccc(NS(=O)(=O)c2ccc(C(=O)NCc3ccccn3)cc2)cc1', 'inactive'),
  ('COc1ccc(C2C(C#N)=C(N)OC3=C2C(=O)CC(C)(C)C3)cc1Cn1nc(C)c([N+](=O)[O-])c1C (stereo not given)', 'inactive'),
  ('CC(C)CN(C(=O)C1CCCC1)C1CCS(=O)(=O)C1 (stereo not given)', 'inactive'),
  ('CC(C)=C1C2CCC1C(C(=O)Nc1cc(C)cc(C)c1)C2C(=O)O (stereo not given)', 'inactive');

Now consider the entry below.
**Query** Provide one value: measured outcome of "N#Cc1cc(N2CCCCC2)c([N+](=O)[O-])cc1C#N"
**Result** inactive

---

- assay_procedure: qHTS Assay for Lipid Storage Modulators in Drosophila S3 Cells;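 as to cell number change: cells counted by Cell Tracker Red CMTPX staining in the red channel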
- condition_context: BODIPY lipid droplet fluorescence, 18-24 h, cells fed with added oleic acid; measured here: cell count max response
The campaign covered roughly 320,000 compounds. About 2,100 (0.66%) were called active. Another 53% or so got no clear call; they are omitted. Many of the other results were omitted from the sample, so actives are more common in it than they were.
Give cell number change for every item shown.
Numeric only. Scale: %

**Query** Note cell number change for the compound shown: CC1CC(C)CN(S(=O)(=O)c2ccc3c(c2)C(C)(C)C(=O)N3C)C1 (stereo not drawn)
**Result** 26.4

**Query** Please report cell number change for the following compound: "O=C(CCN1C(=O)/C(=C/c2ccccc2)SC1=S)Nc1ccccn1"
**Result** -0.917

**Query** Tell us which cell number change value is on record for "Cc1ccc(/C=C2\SC(=S)N(CCCC(=O)NNC(=O)c3ccccc3O)C2=O)cc1"
**Result** 17.7

**Query** Fill in cell number change for record CC1CCCN(C(=O)Cn2c3ccccc3c3nc4n(c(=O)c32)CCS4)C1 (stereo not drawn)
**Result** -9.4

**Query** Give a short answer stating reported cell number change for CCC1CN(C(=O)N2CCC(C(=O)NCc3cc(OC)c(OC)c(OC)c3)CC2)c2ccccc2O1 (stereo not drawn) .
**Result** -18

**Query** Dear colleague, please send me the reported cell number change for CC(=O)N1CC(C)Sc2ccc(S(=O)(=O)NCc3ccc(Cl)cc3)cc21 (stereo not drawn) when you can.
**Result** 17.6

**Query** Annotate the compound "COc1ccc(-c2ccc(CCC(=O)O)n2-c2ccccc2O)cc1" with its measured cell number change.
**Result** 6.08

**Query** Annotate the compound C=C1CCC[C@]2(C)C[C@H]3OC(=O)C(CN4CC(C)OC(C)C4)[C@H]3C[C@@H]12 (stereo partly drawn) with its measured cell number change.
**Result** 8.39

**Query** Consider the compound "CN1CCS/C1=C/C=C1\SC(=S)N(CC(=O)O)C1=O" and give its recorded cell number change.
**Result** -4.93

**Query** Please list cell number change recorded for the compound "Cc1nc2nc(NC(=O)c3ccco3)nn2c(C)c1Cl"
**Result** 16.3

**Query** Output cell number change of "O=C(c1ccccc1)N1CCn2c1nc1ccccc12"
**Result** 7.4

**Query** Let me know recorded cell number change for COc1ccccc1CN1CC(C(=O)NCc2cc(C(C)C)no2)CCC1=O (stereo not drawn) , thanks.
**Result** 1.05

**Query** Dear colleague, please send me the reported cell number change for "COc1cc(S(=O)(=O)NCc2ccccc2)ccc1F" when you can.
**Result** 6.61

**Query** Given "O=C(Nc1nc2c(F)cc(F)cc2s1)C1CCN(C(=O)c2ccc(F)cc2)CC1" , respond with its cell number change.
**Result** 13.4

**Query** State its cell number change: "COc1cc(OC)cc(C(=O)N2CCN(C(=O)c3ccc(OC)c(OC)c3)CC2)c1"
**Result** 14.7

**Query** State, in one line, measured cell number change of "COCCNC(=O)CN(C(=O)Cn1nnc2ccccc21)c1ccc(C)c(F)c1"
**Result** -2.04

**Query** For the compound "O=C(CCN1C(=O)/C(=C/c2cccs2)SC1=S)Nc1ccc(C(=O)O)c(O)c1" , give its reported cell number change.
**Result** -26.8

**Query** Look up and state reported cell number change for "O=c1[nH]cnc2scc(-c3ccccc3)c12"
**Result** -0.547

**Query** Specify reported cell number change for the compound shown: "Cc1ccc2nc(-c3ccccc3)c(-c3ccccc3)nc2c1"
**Result** 8.82

**Query** Specify cell number change for "O=C(CCN1C(=O)/C(=C\c2cccs2)SC1=S)Nc1nccs1" and stop.
**Result** -0.135

**Query** Answer with the recorded cell number change for the compound listed here: "O=C(CCCN1C(=O)/C(=C/c2cccs2)SC1=S)NNC(=O)c1ccncc1"
**Result** 21

**Query** For the compound "CC(C)NC(=O)CN(Cc1ccccc1)S(=O)(=O)c1ccccc1" , give its reported cell number change.
**Result** 1.76

**Query** Hello, please tell me recorded cell number change for this one: "CN(Cc1ccccc1)S(=O)(=O)c1cccs1"
**Result** 5.69

**Query** Write down cell number change measured for item C=C1CCC[C@]2(C)C[C@H]3OC(=O)C(CN4CCOCC4)[C@H]3C[C@@H]12 (stereo partly drawn)
**Result** -15.3

**Query** Fill in cell number change for record "CCOC(=O)C1CCN(S(=O)(=O)c2ccc(-c3ccccn3)s2)CC1"
**Result** 18.1

**Query** Annotate the compound "CCCCN1C(=O)/C(=C/C=C2/CC(C)(C)CN2C)SC1=S" with its measured cell number change.
**Result** 0.528

**Query** Input "C=CCSc1nc(C)cc2c1C(=O)OC2" , output reported cell number change.
**Result** -10

**Query** Quote cell number change reported for CCC1CN(C(=O)N2CCC(C(=O)NCCc3ccc(OC)c(OC)c3)CC2)c2ccccc2O1 (stereo not drawn) please.
**Result** 5.9
